ASSAY: Blood to plasma partitioning ratio in dog at 10 uM incubated for 30 mins by LC-MS/MS analysis
Type: ADME, cell-free, Canis lupus familiaris
PROTOCOL CONDITIONS: whole blood
READOUT KIND: blood plasma ratio at 0.5 h, 10 µM

COMPOUND	READOUT KIND	RESULT NUMBER
O=C1CC[C@H](N2Cc3cc(N4CCN(CC5CCN(c6ccc([C@@H]7c8ccc(O)cc8CC[C@@H]7c7ccccc7)cc6)CC5)CC4)ccc3C2=O)C(=O)N1	blood plasma ratio at 0.5 h, 10 µM	0.5
COc1cc(-c2cn(C)c(=O)c3cnc(N4CCC4)cc23)cc(OC)c1CN1CCC(CN2CCC3(CC2)CN(c2ccc4c(c2)C(=O)N([C@H]2CCC(=O)NC2=O)C4)C3)CC1	blood plasma ratio at 0.5 h, 10 µM	2.4
Cc1ncsc1-c1ccc([C@H](C)NC(=O)[C@@H]2C[C@@H](O)CN2C(=O)[C@@H](NC(=O)CCCCCC(=O)N2CCN(CC[C@H](CSc3ccccc3)Nc3ccc(S(=O)(=O)NC(=O)c4ccc(N5CCN(CC6=C(c7ccc(Cl)cc7)CCC(C)(C)C6)CC5)cc4)cc3S(=O)(=O)C(F)(F)F)CC2)C(C)(C)C)cc1	blood plasma ratio at 0.5 h, 10 µM	0.8

a = CN1CCN([C@@H]2CCCN(c3cnc(C(N)=O)c(Nc4ccc(C5CCN(CC6CCN(c7ccc(C(=O)N[C@H]8CCC(=O)NC8=O)nc7)CC6)CC5)cc4)n3)C2)C1=O
b = CNC(=O)COc1cc2cc(Nc3nc(N4CCC(O[C@H]5C[C@H](N6CCC(c7ccc8c(c7F)CN(C7CCC(=O)NC7=O)C8=O)CC6)C5)CC4)ncc3Cl)ccc2n(C(C)C)c1=O (stereo not given in full)
Which of these two has the smaller recorded blood plasma ratio at 0.5 h, 10 µM: a or b ? // respond with label for picked entry
b
(b: 0.7, a: 2.6)
